# measured on: T1, human recombinant HLA-B*08:01 and b2m (human)
# T1 construct: expressed in E. coli and purified; stability of the peptide-MHC complex read as b2m associated with the heavy chain over time at 37 C
# experimental details: pMHC dissociation assay at 37 C; mean half-life grade
parameter: mean half-life (T1/2) of peptide-MHC complex

- HVKEKFLL: 4 to 6 h
- NAMLRKVAV: 2 to 4 h
- ALKARTVTF: 6 to 10 h
- KLKERNREL: 6 to 10 h
- TPKLRETSI: 4 to 6 h
- YPKARLAF: 6 to 10 h
- MGSARVAEL: 4 to 6 h
- SIKTKSAEM: 6 to 10 h
